B1: TPR t1 (parent)
chain: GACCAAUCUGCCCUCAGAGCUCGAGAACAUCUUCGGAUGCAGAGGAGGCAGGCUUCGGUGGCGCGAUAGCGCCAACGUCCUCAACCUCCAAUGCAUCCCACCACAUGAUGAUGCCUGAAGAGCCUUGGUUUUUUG

Variants of: B1
test-summary: polymerase ribozyme fitness, log enrichment relative to wild type (log ratio); higher = more active; in vitro selection for triplet polymerase activity
Measured polymerase ribozyme fitness (log ratio), listed per entry.

- mutant-id: "U33G G39C G110U"
  polymerase ribozyme fitness (log ratio): -6.35
- mutant-id: "C82U A100C C123U"
  polymerase ribozyme fitness (log ratio): -0.0044
- mutant-id: "G44C C89U"
  polymerase ribozyme fitness (log ratio): -1.15
- mutant-id: "G39U G42C C94U U106A U112A"
  polymerase ribozyme fitness (log ratio): -0.723
- mutant-id: "C22U C62A"
  polymerase ribozyme fitness (log ratio): -4.41
- mutant-id: "A90C C114U G128U"
  polymerase ribozyme fitness (log ratio): -4.34
- mutant-id: "C49G G63U U92C"
  polymerase ribozyme fitness (log ratio): -3.98
- mutant-id: "A6U G61C"
  polymerase ribozyme fitness (log ratio): -1.18
- mutant-id: "C11U G52U C70A"
  polymerase ribozyme fitness (log ratio): -1.84
- mutant-id: "C22U G60C C104A"
  polymerase ribozyme fitness (log ratio): -5.43
- mutant-id: "A2C C40U"
  polymerase ribozyme fitness (log ratio): -2.06
